Target: recombinant human DAO (diamine oxidase) (Homo sapiens)
Construct: purchased R&D systems
Sequence (P19801 20-751): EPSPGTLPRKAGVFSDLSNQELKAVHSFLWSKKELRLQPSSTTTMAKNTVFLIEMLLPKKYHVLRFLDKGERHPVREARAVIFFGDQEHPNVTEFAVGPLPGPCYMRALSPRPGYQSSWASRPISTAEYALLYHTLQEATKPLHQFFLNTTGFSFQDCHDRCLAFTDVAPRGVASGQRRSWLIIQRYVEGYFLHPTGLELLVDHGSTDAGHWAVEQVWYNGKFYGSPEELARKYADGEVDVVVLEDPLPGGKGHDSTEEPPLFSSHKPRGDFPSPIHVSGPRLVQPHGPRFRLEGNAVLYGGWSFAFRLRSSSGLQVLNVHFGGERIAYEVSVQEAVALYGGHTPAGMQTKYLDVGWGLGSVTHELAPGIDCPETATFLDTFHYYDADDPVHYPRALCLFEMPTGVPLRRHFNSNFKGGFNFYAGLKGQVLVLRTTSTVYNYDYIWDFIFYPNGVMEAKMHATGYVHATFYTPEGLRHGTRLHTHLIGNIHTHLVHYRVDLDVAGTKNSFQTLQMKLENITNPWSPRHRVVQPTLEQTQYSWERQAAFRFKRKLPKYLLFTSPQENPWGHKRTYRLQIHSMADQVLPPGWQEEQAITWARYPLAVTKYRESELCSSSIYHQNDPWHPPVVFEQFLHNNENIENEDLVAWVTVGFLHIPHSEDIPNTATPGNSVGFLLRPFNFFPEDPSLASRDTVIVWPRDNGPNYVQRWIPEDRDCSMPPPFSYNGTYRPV
Test: Activity on recombinant human DAO, Amplex Red method, 1 mM putrescine substrate
Format: biochemical
Conditions: recombinant human DAO, 1 mM putrescine substrate; read-out: Inhibitory Activity (IC50, nM) DAO
Structures can show the parent of a compound that is named as a salt.
Here, each record is paired with measured IC50 data.
Give the number; nM is assumed, so skip it.

compound: Cn1cncc1C#Cc1cccc(-n2cnn(C/C(=C/F)CN)c2=O)n1
reported.endpoint: IC50
unit.annotation: nM
reported.value: 27
--
compound: Cc1ccc(-c2ccc3cn[nH]c3c2)nc1-n1cnn(C/C(=C/F)CN)c1=O [Example 214, hydrochloride]
reported.endpoint: IC50
unit.annotation: nM
reported.value: 1400
--
compound: Cc1cc(-n2cnn(C/C(=C/F)CN)c2=O)ncc1-c1ccc2c(c1)OCO2
reported.endpoint: IC50
unit.annotation: nM
reported.value: 1.8
--
compound: NC/C(=C\F)Cn1ncn(-c2cccc(-c3cccc(N4CCNCC4)c3)n2)c1=O [Example 185, hydrochloride]
reported.endpoint: IC50
unit.annotation: nM
reported.value: 2.5
--
compound: NC/C(=C\F)Cn1ncn(-c2cccc(C#Cc3ccc4c(c3)NCCO4)n2)c1=O
reported.endpoint: IC50
unit.annotation: nM
reported.value: 74

Now examine the next entry.
Dear colleague, please send me the reported IC50 for NC/C(=C\F)Cn1ncn(-c2cccc(-c3ccc(N4CCNCC4)cc3)n2)c1=O [Example 184, hydrochloride] when you can. 110
